Test system: LOUCY;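 note: growth inhibition of human LOUCY cells, read out with a cell viability assay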
Assay: cells
Format: functional, cell-based
Conditions: Homo sapiens
Description: SANGER: Inhibition of human LOUCY cell growth in a cell viability assay.
experimental readout: IC50 (nM)
Reply with just the number (in nM).

What the record says about `C/C=C(/C)C(=O)O[C@H]1C(C)=C2[C@H]([C@@H]1OC(=O)CCCCCCC)[C@@](C)(OC(C)=O)C[C@H](OC(=O)CCC)[C@@]1(O)[C@H]2OC(=O)[C@@]1(C)O` : IC50 is 29.9

What the record says about `CO[C@@]12[C@H](COC(N)=O)C3=C(C(=O)C(C)=C(N)C3=O)N1C[C@@H]1N[C@@H]12` : IC50 is 26.2

* * *

For each of the molecules below, state its IC50.
Test system: K052;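 note: Read-out from a cell viability assay, IC50 reflecting suppression of K052 cell growth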
Experiment: cells
Type: functional, cell-based
Settings: Homo sapiens
Description: SANGER: Inhibition of human K052 cell growth in a cell viability assay.
Reply with just the number (in nM).

What the record says about `Fc1cc(-c2cc[nH]/c(=N/c3ccc(-n4cnc(N5CCOCC5)n4)cc3)n2)cc(N2CCOCC2)c1` : IC50 is 508

What the record says about `CO[C@@]12[C@H](COC(N)=O)C3=C(C(=O)C(C)=C(N)C3=O)N1C[C@@H]1N[C@@H]12` : IC50 is 149
